- System: Human immunodeficiency virus 1
- ASSAY OVERVIEW: Binding affinity to HIV-1 cTAR DNA-29-mer TAR RNA duplex assessed as increase in melting temperature at 10 uM by fluorescence quenching assay
Activity calls are given as the source filed them. The rule behind the calls is not given here.
Please state which outcome applies, choosing from T for active, F for inactive

Solved cases below.
// param item: C[C@H](NC(=O)C(N)CCCCN)C(=O)Nc1ccc2c(c1)C(=O)c1ccc(NC(=O)[C@H](C)NC(=O)C(N)CCCCN)cc1C2=O (some centres not stated) ; yields the recorded call T

Also check Nc1ccc(CC(N)C(=O)NCC(=O)Nc2ccc3c(c2)C(=O)c2ccc(NC(=O)CNC(=O)C(N)Cc4ccc(N)cc4)cc2C3=O)cc1 (configuration not stated) F

Continue with NCCCCC(N)C(=O)NCC(=O)Nc1ccc2c(c1)C(=O)c1ccc(NC(=O)CNC(=O)C(N)CCCCN)cc1C2=O (configuration not stated) T

// next entry
What call does the record list for NCCCC(N)C(=O)NCC(=O)Nc1ccc2c(c1)C(=O)c1ccc(NC(=O)CNC(=O)C(N)CCCN)cc1C2=O (configuration not stated) ? T

###

- Tested on: Human immunodeficiency virus 1
- ASSAY OVERVIEW: Binding affinity to HIV-1 cTAR DNA assessed as increase in melting temperature at 10 uM by fluorescence quenching assay
Active and inactive are the calls of the source. No cut-off for these calls is given here.
Pick one and only one: yes = active, no = inactive

// return assay outcome for Nc1ccc(CC(N)C(=O)NCC(=O)Nc2ccc3c(c2)C(=O)c2ccc(NC(=O)CNC(=O)C(N)Cc4ccc(N)cc4)cc2C3=O)cc1 (stereo not drawn) no

Continuing:
Any idea what this test logged for C[C@H](NC(=O)C(N)CCCCN)C(=O)Nc1ccc2c(c1)C(=O)c1ccc(NC(=O)[C@H](C)NC(=O)C(N)CCCCN)cc1C2=O (stereo partly drawn) ? yes

How about NC[C@H]1CC[C@H](C(=O)NCC(=O)Nc2ccc3c(c2)C(=O)c2ccc(NC(=O)CNC(=O)[C@H]4CC[C@H](CN)CC4)cc2C3=O)CC1 ? no

Query C[C@H](NC(=O)C(N)CN)C(=O)Nc1ccc2c(c1)C(=O)c1ccc(NC(=O)[C@H](C)NC(=O)C(N)CN)cc1C2=O (stereo partly drawn) next no

C[C@H](NC(=O)C(N)CCCN)C(=O)Nc1ccc2c(c1)C(=O)c1ccc(NC(=O)[C@H](C)NC(=O)C(N)CCCN)cc1C2=O (stereo partly drawn) , same question. yes

Now this one: NCCCC(N)C(=O)NCC(=O)Nc1ccc2c(c1)C(=O)c1ccc(NC(=O)CNC(=O)C(N)CCCN)cc1C2=O (stereo not drawn) yes

Consider next the compound O=C(CNC(=O)C1CCNCC1)Nc1ccc2c(c1)C(=O)c1ccc(NC(=O)CNC(=O)C3CCNCC3)cc1C2=O in the same way. yes

Entry C[C@H](NC(=O)C(N)CCN)C(=O)Nc1ccc2c(c1)C(=O)c1ccc(NC(=O)[C@H](C)NC(=O)C(N)CCN)cc1C2=O (stereo partly drawn) please yes

# iterate: NCC(N)C(=O)NCC(=O)Nc1ccc2c(c1)C(=O)c1ccc(NC(=O)CNC(=O)C(N)CN)cc1C2=O (stereo not drawn) yes

Also NCCC(=O)NCC(=O)Nc1ccc2c(c1)C(=O)c1ccc(NC(=O)CNC(=O)CCN)cc1C2=O ? yes

What about NCCCCC(N)C(=O)NCC(=O)Nc1ccc2c(c1)C(=O)c1ccc(NC(=O)CNC(=O)C(N)CCCCN)cc1C2=O (stereo not drawn) ? yes

Note, next up: NCCC(N)C(=O)NCC(=O)Nc1ccc2c(c1)C(=O)c1ccc(NC(=O)CNC(=O)C(N)CCN)cc1C2=O (stereo not drawn) yes

Further, for NC1(C(=O)NCC(=O)Nc2ccc3c(c2)C(=O)c2ccc(NC(=O)CNC(=O)C4(N)CCNCC4)cc2C3=O)CCNCC1 ? yes

Source: ChEMBL document CHEMBL3779894
